This collection of values is drawn from patent US9791456B2.

# Assayed Target: ATR (Mus musculus, UniProt Q9JKK8)
# Construct: Whole human or mouse blood was collected in heparinised tubes; endogenous in cells
# Method Notes: ATR inhibition in whole mouse blood ex vivo: 4-nitroquinoline stimulated H2AX phosphorylation in lymphocytes, flow cytometry
Measure: pIC50
Scale explanation: pIC50 corresponds to minus log10 of a concentration expressed in moles per litre.

Give recorded pIC50 with ATR (Mus musculus, UniProt Q9JKK8) for the following compound: CNCc1ccc(-c2cc(-c3nc(-c4ccc(S(=O)(=O)C(C)C)cc4)cnc3N)on2)cc1 [VE-822]
6.00
